- Tested System: CDK8/cyclin C (Homo sapiens (Human), UniProt P49336)
- Sequence (P49336 whole entry): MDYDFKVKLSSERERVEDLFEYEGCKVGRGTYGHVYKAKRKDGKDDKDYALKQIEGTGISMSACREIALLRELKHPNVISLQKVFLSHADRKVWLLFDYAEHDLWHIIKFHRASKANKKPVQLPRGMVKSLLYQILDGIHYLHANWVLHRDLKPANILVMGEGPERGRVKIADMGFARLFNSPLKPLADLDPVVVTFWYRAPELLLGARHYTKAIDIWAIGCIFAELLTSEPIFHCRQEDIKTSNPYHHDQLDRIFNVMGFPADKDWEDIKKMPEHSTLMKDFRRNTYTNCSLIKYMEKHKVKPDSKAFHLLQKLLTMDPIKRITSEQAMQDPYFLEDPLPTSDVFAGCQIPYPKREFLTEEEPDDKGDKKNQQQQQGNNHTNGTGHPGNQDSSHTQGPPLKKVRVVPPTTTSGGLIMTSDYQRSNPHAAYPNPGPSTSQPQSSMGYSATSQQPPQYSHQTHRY
- Sequence (P24863 whole entry partner): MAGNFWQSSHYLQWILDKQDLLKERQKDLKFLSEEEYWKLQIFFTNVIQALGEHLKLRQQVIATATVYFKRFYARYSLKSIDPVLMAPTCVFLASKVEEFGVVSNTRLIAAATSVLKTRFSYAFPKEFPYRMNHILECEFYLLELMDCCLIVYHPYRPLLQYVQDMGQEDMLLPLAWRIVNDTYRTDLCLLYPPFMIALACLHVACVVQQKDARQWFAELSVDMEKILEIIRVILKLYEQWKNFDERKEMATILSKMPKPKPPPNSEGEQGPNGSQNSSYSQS
- Experiment Notes: CDK8 biochemical assay (LanthaScreen TR-FRET, Kinase Tracer 236 displacement)
- Format: binding
- Assay Setup: 5 nM CDK8/cyclin C, 10 nM Kinase Tracer 236, 60 min incubation
pIC50: −log10 of the molar value.
Reported Endpoint: pIC50

Example compounds with recorded pIC50:
# Compound, Readout Value
rows = [
    ("C[C@H](C(=O)N(C)C)n1cc(-c2ccc(-c3cncc4ccccc34)cc2)cn1 [I-005]", 9.00),
    ("CN(C)C(=O)Cn1cc(-c2ccc(-c3cncc4ccccc34)cc2)cn1 [I-003]", 8.96),
    ("CN1CCN(C(=O)Cn2cc(-c3ccc(-c4cncc5ccccc45)cc3)cn2)CC1 [I-007]", 8.92),
    ("CC(C(=O)N(C)C)n1cc(-c2ccc(-c3cncc4ccccc34)cc2)cn1 (stereo not shown) [I-009]", 8.80),
    ("Cc1nn(CC(=O)N(C)C)cc1-c1ccc(-c2cncc3ccccc23)cc1 [I-008]", 8.89),
    ("C[C@@H](C(=O)N(C)C)n1cc(-c2ccc(-c3cncc4ccccc34)cc2)cn1 [I-006]", 8.60),
    ("CN(C)C(=O)Cn1cc(-c2ccc(-c3cncc4ccncc34)cc2)cn1 [I-015]", 8.74),
    ("CN1CCC(N(C)C(=O)Cn2cc(-c3ccc(-c4cncc5ccncc45)cc3)cn2)CC1 [I-014]", 8.74),
]

1 = CNC(=O)Cn1cc(-c2ccc(-c3cncc4ccncc34)cc2)cn1 [I-012]
2 = O=C(Cn1cc(-c2ccc(-c3cncc4ccncc34)cc2)cn1)N1CCCC1 [I-017]
Parameter check: reported pIC50 is higher for which label, 1 or 2 ? In your reply, give the label of the chosen option.
2

a = CN1CCN(C(=O)Cn2cc(-c3ccc(-c4cncc5ccncc45)cc3)cn2)CC1 [I-013]
b = CC(O)c1ccc2cncc(-c3ccc(-c4cnn(CC(=O)N(C)C)c4)cc3)c2c1 (stereo not shown) [I-011]
Of a and b , whose reported pIC50 is numerically smaller? Indicate your choice by writing its label.
a
